Recorded values, source ChEMBL document CHEMBL3352601.

Target: UniProtKB P07339
Sequence (P07339 65-162 limits assumed): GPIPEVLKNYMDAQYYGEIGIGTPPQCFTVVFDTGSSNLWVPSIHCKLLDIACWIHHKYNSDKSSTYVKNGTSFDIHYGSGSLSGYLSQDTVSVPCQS
Sequence (P07339 169-412 limits assumed): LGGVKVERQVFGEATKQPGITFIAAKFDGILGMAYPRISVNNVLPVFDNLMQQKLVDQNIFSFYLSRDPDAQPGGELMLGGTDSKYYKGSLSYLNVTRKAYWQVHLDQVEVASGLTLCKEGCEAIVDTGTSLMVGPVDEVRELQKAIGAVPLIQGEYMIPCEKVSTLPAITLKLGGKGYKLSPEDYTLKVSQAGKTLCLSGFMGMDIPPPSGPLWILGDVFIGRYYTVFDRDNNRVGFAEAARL
Exam item: assign 1 to entries whose Ki is below 20 µM and 0 to entries at or above 20 µM. Note that a value of exactly 20 µM receives 0.

Use the examples below as a reference point.
INSERT INTO assay_data (compound, label) VALUES
  ('CCCCC(=O)N1CC[C@H](C[C@@]2(CCC3CCCCC3)NC(=N)N(C)C2=O)C1', 0),
  ('CCCCCN1CCC[C@H](C[C@@]2(CCC3CCCCC3)NC(=N)N(C)C2=O)C1', 0),
  ('CN1C(=N)N[C@](CCC2CCCCC2)(C[C@H]2CCC[C@@H](NC(=O)Nc3ccc(Cl)cc3)C2)C1=O', 0),
  ('CCCCC(=O)N1CCC[C@H](C[C@@]2(CCC3CCCCC3)NC(=N)N(C)C2=O)C1', 0),
  ('CN1C(=N)N[C@](CCC2CCCCC2)(C[C@H]2CCC[C@@H](NC(=O)c3ccccc3)C2)C1=O', 1),
  ('CN1C(=N)N[C@](CCC2CCCCC2)(C[C@H]2CCC[C@@H](NCC3CC3)C2)C1=O', 0);

**Query** Report whether reported Ki is lower than 20 µM (strictly) for CN1C(=N)N[C@](CCC2CCCCC2)(C[C@@H]2CCCN(C(=O)CC3CCCC3)C2)C1=O
**Result** 1

**Query** Also, CN1C(=N)N[C@](CCC2CCCCC2)(C[C@H]2CCCNC2)C1=O please.
**Result** 0

**Query** What would you report for CN1C(=N)N[C@](CCC2CCCCC2)(C[C@@H]2CCCNC2)C1=O ?
**Result** 0

**Query** Lookup CN1C(=N)N[C@](CCC2CCCCC2)(C[C@H]2CCC[C@@H](NC(=O)Nc3ccc(C#N)cc3)C2)C1=O
**Result** 1

**Query** Entry to check: CN1C(=N)N[C@](CCC2CCCCC2)(C[C@H]2CCCN(C(=O)CC3CCCC3)C2)C1=O
**Result** 1

**Query** # iterate: CN1C(=N)N[C@](CCC2CCCCC2)(C[C@H]2CCC[C@@H](NC(=O)Nc3ccc4ccccc4n3)C2)C1=O
**Result** 0

**Query** Now consider CN1C(=N)N[C@](CCC2CCCCC2)(C[C@@H]2CCCN(C(=O)OC(C)(C)C)C2)C1=O and answer again.
**Result** 0

**Query** Next up: CCCCS(=O)(=O)N1CCC[C@H](C[C@@]2(CCC3CCCCC3)NC(=N)N(C)C2=O)C1
**Result** 0

###

Experiment: in vivo
Conditions: rat, plasma, sc, 10 mg/kg
quantityMeasured: AUC(0-t) at 6 h (µM·h)
Quick reminder: number only, in µM·h, skip the unit.

**Query** I would be grateful if you could share the reported AUC(0-t) at 6 h for CN1C(=N)N[C@](CCC2CCCCC2)(C[C@H]2CCC[C@@H](NC(=O)Nc3ccc4ccccc4n3)C2)C1=O .
**Result** 0.306

###

Target: Beta-secretase 1 (Homo sapiens)
Sequence (P56817 whole entry): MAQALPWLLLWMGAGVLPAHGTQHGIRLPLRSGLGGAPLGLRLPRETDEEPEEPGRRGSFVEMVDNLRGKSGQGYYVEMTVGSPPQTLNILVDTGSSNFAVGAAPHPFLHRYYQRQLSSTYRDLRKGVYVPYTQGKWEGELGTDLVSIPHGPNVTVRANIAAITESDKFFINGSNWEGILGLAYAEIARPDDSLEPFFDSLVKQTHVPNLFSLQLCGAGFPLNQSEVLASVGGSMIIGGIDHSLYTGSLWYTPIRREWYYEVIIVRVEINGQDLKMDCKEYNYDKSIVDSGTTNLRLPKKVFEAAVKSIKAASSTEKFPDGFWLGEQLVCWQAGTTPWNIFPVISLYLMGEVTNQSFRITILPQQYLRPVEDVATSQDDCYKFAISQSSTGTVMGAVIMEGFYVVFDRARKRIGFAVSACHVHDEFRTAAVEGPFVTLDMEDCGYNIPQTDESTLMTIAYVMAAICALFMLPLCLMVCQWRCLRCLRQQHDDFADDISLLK
Experiment: Inhibition of BACE1-mediated amyloid beta 40 production in HEK293-APPswe/lon cells by whole cell assay
Type: cell-based
quantityMeasured: pEC50
Formally, pEC50 is defined as -log10 of the concentration c, with c in mol/L.

**Query** Param item = CN1C(=N)N[C@](CCC2CCCCC2)(C[C@H]2CCC[C@@H](NC(=O)Nc3ccc4ccccc4n3)C2)C1=O ; retrieve measured pEC50.
**Result** 6.59
